- MEASUREMENT_TARGET: β-galactosidase (Escherichia coli)
- Construct: purchased Sigma Chemical Co., St. Louis, Mo
- Sequence (P00722 2-1024): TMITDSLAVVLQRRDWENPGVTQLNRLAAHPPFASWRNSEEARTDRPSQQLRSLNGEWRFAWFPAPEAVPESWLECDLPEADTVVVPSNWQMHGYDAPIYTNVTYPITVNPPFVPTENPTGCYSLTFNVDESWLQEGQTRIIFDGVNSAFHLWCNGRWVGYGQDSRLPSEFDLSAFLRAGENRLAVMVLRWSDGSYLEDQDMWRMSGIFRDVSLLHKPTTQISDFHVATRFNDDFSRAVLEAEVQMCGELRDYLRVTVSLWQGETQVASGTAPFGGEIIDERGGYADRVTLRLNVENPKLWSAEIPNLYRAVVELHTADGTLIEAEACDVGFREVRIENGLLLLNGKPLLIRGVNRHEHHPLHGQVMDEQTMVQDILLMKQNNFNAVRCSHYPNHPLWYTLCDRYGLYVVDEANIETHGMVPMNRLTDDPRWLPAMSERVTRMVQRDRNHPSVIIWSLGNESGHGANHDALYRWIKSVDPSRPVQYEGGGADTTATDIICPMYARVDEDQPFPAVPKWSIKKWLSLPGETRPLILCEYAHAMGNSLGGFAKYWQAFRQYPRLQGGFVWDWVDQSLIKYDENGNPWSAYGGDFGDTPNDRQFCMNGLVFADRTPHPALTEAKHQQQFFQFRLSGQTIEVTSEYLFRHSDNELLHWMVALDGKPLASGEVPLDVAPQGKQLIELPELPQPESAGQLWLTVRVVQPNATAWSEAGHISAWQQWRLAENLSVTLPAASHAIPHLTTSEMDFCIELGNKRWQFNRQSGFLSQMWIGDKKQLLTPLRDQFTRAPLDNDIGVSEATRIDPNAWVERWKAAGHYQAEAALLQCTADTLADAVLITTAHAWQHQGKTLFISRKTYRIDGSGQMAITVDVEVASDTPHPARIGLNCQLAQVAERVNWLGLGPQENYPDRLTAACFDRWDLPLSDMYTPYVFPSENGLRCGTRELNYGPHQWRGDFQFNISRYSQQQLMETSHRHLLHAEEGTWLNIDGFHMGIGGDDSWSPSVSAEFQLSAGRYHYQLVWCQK
- TEST_PROTOCOL: In vitro kinetic assay of galactosidase substrates (absorbance increase at 490 nm)
- Assay type: biochemical
- CONDITION_INFO: read-out: KM (Michaelis constant); in buffer, pH 7.0, room temperature
# Km per record follows
Be sure to follow the number with its unit.

Some molecules with known Km results, for comparison:
Which Km is reported for this molecule? CCCCCCCCCCCC(=O)Nc1ccc2c(c1)C(=O)OC21c2ccc(O[C@@H]3O[C@H](CO)[C@H](O)[C@H](O)[C@H]3O)cc2Oc2cc(O[C@@H]3O[C@H](CO)[C@H](O)[C@H](O)[C@H]3O)ccc21
0.316 µM

Which Km is reported for this molecule? O=C1OC2(c3ccc(O[C@@H]4O[C@H](CO)[C@H](O)[C@H](O)[C@H]4O)cc3Oc3cc(O[C@@H]4O[C@H](CO)[C@H](O)[C@H](O)[C@H]4O)ccc32)c2ccccc21 [C0 FDG, fluorescein di-62-galactopyranoside, reference compound]
18 µM

Which Km is reported for this molecule? CCCCCCCCCCCCCCCCCC(=O)Nc1ccc2c(c1)C(=O)OC21c2ccc(O[C@@H]3O[C@H](CO)[C@H](O)[C@H](O)[C@H]3O)cc2Oc2cc(O[C@@H]3O[C@H](CO)[C@H](O)[C@H](O)[C@H]3O)ccc21
20.8 µM

In the following, a different molecule is considered.
Which Km is reported for this molecule? CCCCCCCCCCCCCCCC(=O)Nc1ccc2c(c1)C(=O)OC21c2ccc(O[C@@H]3O[C@H](CO)[C@H](O)[C@H](O)[C@H]3O)cc2Oc2cc(O[C@@H]3O[C@H](CO)[C@H](O)[C@H](O)[C@H]3O)ccc21
1.06 µM
